Assay info: recombinant barcode read abundance after kanamycin selection (control-corrected) (log10(CPM+1)); higher = more efficient recombination; sequences stand for … in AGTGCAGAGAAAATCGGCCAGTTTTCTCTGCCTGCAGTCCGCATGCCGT…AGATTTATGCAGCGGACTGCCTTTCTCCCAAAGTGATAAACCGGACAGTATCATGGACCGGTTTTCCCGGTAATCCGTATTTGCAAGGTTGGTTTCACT; site = the 11-nt target;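 note: IS621 recombinase and bridge RNA in Escherichia coli cells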
Property label: recombinant barcode read abundance (log10)
API doc: respond with a numeric literal and nothing else, no unit.

Seq string	Observed result
TTCAAATCTTGGGTTCTAACCTGTTGCCT (site TTCAAATCTAG)	0
GAGGGTGCTTGGGTTCTAACCTGTTGCCT (site GAGGGTTCTAT)	0.121
GCTCAGCCTTGGGTTCTAACCTGTTGCCT (site GCTCAGCCTAG)	1.14
CTACTTGCTTGGGTTCTAACCTGTTGCAA (site CTAGTTGCTTT)	0.239
CTCTGGACTTGGGTTCTAACCTGTTGCTT (site CTCTGGACTAA)	1.13

Item CTATGGACTTGGGTTCTAACCTGTTGCAG (site CTATGGACTAT) has what recorded recombinant barcode read abundance (log10)?
0.391

What recombinant barcode read abundance (log10) value was documented for this sequence, GCCGCTCCTTGGGTTCTAACCTGTTGCCT (site GCGGTTCCTAG) ?
0.098

recombinant barcode read abundance (log10) for CTGACTTCTTGGGTTCTAACCTGTTGCCT (site CAGACTTCTAG) ?
0.0484

Which recombinant barcode read abundance (log10) value is on record for TAGCATGCTTGGGTTCTAACCTGTTGCAG (site TAGCATGCTAT) ?
0.0261

recombinant barcode read abundance (log10) for TAGCACTCTTGGGTTCTAACCTGTTGCAG (site AAGCACCCTCT) ?
0.0429

----------
Assay info: recombinant barcode read abundance after kanamycin selection (control-corrected) (log10(CPM+1)); higher = more efficient recombination; sequences stand for … in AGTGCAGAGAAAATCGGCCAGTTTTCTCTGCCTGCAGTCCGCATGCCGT…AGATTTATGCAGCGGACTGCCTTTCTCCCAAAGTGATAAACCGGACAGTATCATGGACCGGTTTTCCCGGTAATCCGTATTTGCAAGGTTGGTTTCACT; site = the 11-nt target
# maps each entry to its recombinant barcode read abundance (log10)
No unit in the answer, please; the number alone is enough.

Known results for sequences:
Seq string	Observed result
GCACGGACTTGGGTTCTAACCTGTTGCAG (site GCACGGACTCT)	2.35
TCACATTCTTGGGTTCTAACCTGTTGCCT (site TCAGATTCTAG)	0.183
GTACTCTCTTGGGTTCTAACCTGTTGCAG (site CCGTCAACTAG)	0.0592
TAGTCTGCTTGGGTTCTAACCTGTTGCCT (site TAGCCTGCTAG)	0.27
AAACTAACTTGGGTTCTAACCTGTTGCCT (site ATACTAACTAG)	0.073
TGCCAATCTTGGGTTCTAACCTGTTGCCT (site TTCCAATCTTG)	0.0187

Quick check: recombinant barcode read abundance (log10) of CCTTCTACTTGGGTTCTAACCTGTTGCCT (site CCTTCTACTTA) ?
0

Please give the measured recombinant barcode read abundance (log10) for this sequence: AAATCTGCTTGGGTTCTAACCTGTTGCCT (site GGTGGGACTGT)
0.229

Which recombinant barcode read abundance (log10) is listed for TGCAAGTCTTGGGTTCTAACCTGTTGCCT (site TGCAAGTCTAG) ?
0.361

Item under review: TGTCGGACTTGGGTTCTAACCTGTTGCAC (site TGTCGGACTCT) . Reported recombinant barcode read abundance (log10)?
0.214

Bench note: what recombinant barcode read abundance (log10) did CCTTGTCCTTGGGTTCTAACCTGTTGCAG (site CCTTGTCCTCT) show?
0.79

Endpoint output: recombinant barcode read abundance (log10) of TCGCACACTTGGGTTCTAACCTGTTGCTA (site TCGCACACTTA) . Value?
0.148

Reported recombinant barcode read abundance (log10), sequence AGTGAGCCTTGGGTTCTAACCTGTTGCCT (site AGTTAGCCTAG) : ____
0.0633

I have this sequence here, GGCGCGTCTTGGGTTCTAACCTGTTGCAT (site GGAGCGTCTAC) , and I need its recorded recombinant barcode read abundance (log10).
0.0291

# get_value(readout='recombinant barcode read abundance (log10)', item= ATAAATCCTTGGGTTCTAACCTGTTGCCT (site GTAAATCCTAG) )
0.0609

What does the data say about its recombinant barcode read abundance (log10)? Entry: GATTCTCCTTGGGTTCTAACCTGTTGCCT (site GATTCTCCTAC)
0.0529

Form field: reported recombinant barcode read abundance (log10) of TCTGATTCTTGGGTTCTAACCTGTTGCCG (site TCTTATTCTAG)
0.133

Which recombinant barcode read abundance (log10) reading was recorded for the sequence CGTACCTCTTGGGTTCTAACCTGTTGCTT (site CGTACCTCTTA) ?
0.127

// recombinant barcode read abundance (log10) lookup, key: GATGGGTCTTGGGTTCTAACCTGTTGCCT (site GATGGGTCTAG)
1.37

Requested read-out: recombinant barcode read abundance (log10). Entry: GTCTATACTTGGGTTCTAACCTGTTGCCA (site GTCTATACTTG)
0.571

Query: recombinant barcode read abundance (log10); subject: CGGAATGCTTGGGTTCTAACCTGTTGCCT (site CGAAATGCTAG)
0.198

Look up recombinant barcode read abundance (log10) for this sequence: TACCTAACTTGGGTTCTAACCTGTTGCTT (site GGTTCCTCTCC)
0.206

Give the measured recombinant barcode read abundance (log10) of GTGTACCCTTGGGTTCTAACCTGTTGCGG (site GTGTACCCTGC) .
0.161
